CONDITION SUMMARY: 341.15 K; 101.33 kPa; Liquid; Vibrating tube method
MEASURED QUANTITY: mass density (kg/m3)
Supply the numeric figure in kg/m3, leaving out any unit text.

Previously resolved entries follow.
>>> print(df.to_string())
                                   compound  recorded_measurement
0  CCn1cc[n+](C)c1.O=S(=O)([O-])O [1-ethyl-3-methylimidazolium hydrogen sulfate]               1339.75
1  CCn1cc[n+](C)c1.COS(=O)(=O)[O-] [1-ethyl-3-methylimidazolium methylsulfate]               1257.13

Give mass density for CCCCOS(=O)(=O)[O-].CC[n+]1ccn(C)c1 [3-ethyl-1-methylimidazolium butyl sulfate]
1147.65

Name the recorded mass density of the compound listed here: CCCCCCCCOS(=O)(=O)[O-].CCn1cc[n+](C)c1 [1-ethyl-3-methylimidazolium octyl sulfate]
1067.43

Could you please provide reported mass density for CCCCCCOS(=O)(=O)[O-].CC[n+]1ccn(C)c1 [3-ethyl-1-methyl-1H-imidazolium hexyl sulfate] ? Thanks!
1102.13

----------
CONDITION SUMMARY: 326.15 K; 101.33 kPa; Liquid; Vibrating tube method
MEASURED QUANTITY: mass density (kg/m3)
# number only, unit kg/m3 dropped from output

Below, each entry is followed by its recorded mass density result.
>>> print(df.to_string())
                                   compound  recorded_measurement
0  CCn1cc[n+](C)c1.COS(=O)(=O)[O-] [1-ethyl-3-methylimidazolium methylsulfate]               1267.04
1  CCn1cc[n+](C)c1.O=S(=O)([O-])O [1-ethyl-3-methylimidazolium hydrogen sulfate]               1348.88
2  CCCCCCOS(=O)(=O)[O-].CC[n+]1ccn(C)c1 [3-ethyl-1-methyl-1H-imidazolium hexyl sulfate]               1111.81
3  CCCCOS(=O)(=O)[O-].CC[n+]1ccn(C)c1 [3-ethyl-1-methylimidazolium butyl sulfate]               1157.43

Shifting focus to the compound that follows.
Return value of mass density for input CCCCCCCCOS(=O)(=O)[O-].CCn1cc[n+](C)c1 [1-ethyl-3-methylimidazolium octyl sulfate] , no commentary.
1077.13

----------
CONDITION SUMMARY: 328.15 K; 101.33 kPa; Liquid; Concentric cylinders viscometry
Numbers after ± are expanded uncertainties.
Listed compounds paired with reported viscosity
Just so you know, I need the unit written after the number.

Before answering, review these 3 worked examples.
>>> print(df.to_string())
                                   compound  recorded_measurement
0  CCCCOS(=O)(=O)[O-].CC[n+]1ccn(C)c1 [3-ethyl-1-methylimidazolium butyl sulfate]      45.9 ± 1.9 mPa·s
1  CCn1cc[n+](C)c1.COS(=O)(=O)[O-] [1-ethyl-3-methylimidazolium methylsulfate]      26.1 ± 1.1 mPa·s
2  CCCCCCOS(=O)(=O)[O-].CC[n+]1ccn(C)c1 [3-ethyl-1-methyl-1H-imidazolium hexyl sulfate]      69.2 ± 2.9 mPa·s

Please look at the following compound next.
Indicate the recorded viscosity value for this compound: CCn1cc[n+](C)c1.O=S(=O)([O-])O [1-ethyl-3-methylimidazolium hydrogen sulfate]
279.7 ± 13 mPa·s
